Consider the following molecules; for each one, report its Tagg (pH 7.1).
assay: Thermostability, ProteoStat Thermal Shift Stability Kit, temperature of aggregation; type: physicochemical; conditions: pH 7.1; heated from 25° C. to 95° C.

Fill in the blank: the reported Tagg (pH 7.1) of SEQID-00241: nutritive polypeptide (protein, listed as Bos taurus) SELKKDIDDLELTLAKVEKEKHATENKVKNLTEEMAGLDETIAKLTKEKKALQEAHQQTLDDLQAEEDKVNTLTKAKTKLEQQVDDLEGSLEQEKKLRMDLERAKRKLEGDLKLA is ____.
>95

Fill in the blank: the reported Tagg (pH 7.1) of SEQID-00269: nutritive polypeptide (protein) DLKKKLDDDLGTLENLEELKKKLLKDLELLSQRLEELALAYDKLEKTKTRLQQELDDLLLDLDHQ is ____.
>95

Measured values drawn from patent US20260069656A1 for this set.
